Tested on: HL-60
Assay: NCI tumour cell line growth inhibition, 48 h
Activity calls are given as the source filed them. No stated cut-off is given here; in the data, active = GI50 up to about 1.1 µM and inactive = higher.
// allowed return values: Y = active, N = inactive

Take a look at these entries with their results.
>>> classification("CS(=O)(=O)c1ccc(C2=C(c3ccccc3)C(=O)OC2)cc1 [ROFECOXIB]")
"N"
>>> classification("CCOP(=O)(/C=C/n1cnc2c(=O)n(C(C)=O)c(N)nc21)OCC")
"N"

Problem: Short answer needed: outcome of this test for `COc1cccc(-c2cc(O)c3cc4c(cc3n2)OCO4)c1` ?
Result: Y

Problem: Short answer needed: outcome of this test for `COc1ccc2c(O)c(S(=O)(=O)c3ccc(C)cc3)c(=O)oc2c1OC` ?
Result: N

Problem: Short answer needed: outcome of this test for `Cc1nc2ccccc2c(=O)n1/N=C(\N=N\c1ccc(Cl)cc1)c1cccc(-c2ccco2)c1` ?
Result: N

Problem: Short answer needed: outcome of this test for CS(=O)(=O)CCC1CCC(=O)O1 (stereo not given) ?
Result: N

Problem: Short answer needed: outcome of this test for `O=C(OCCN=C1c2ccccc2CCc2ccccc21)c1cc([N+](=O)[O-])cc([N+](=O)[O-])c1` ?
Result: N

Problem: Short answer needed: outcome of this test for CSCCC(NCc1c(O)ccc2ccc(=O)oc12)C(=O)O (stereo not given) ?
Result: N
